- test target: NDM-1 (Klebsiella pneumoniae, UniProt C7C422)
- Construct: made in house; host or cells: E. coli (DH5 and BL21(DE3) named)
- Sequence (C7C422 29-270, looked up, species assumed): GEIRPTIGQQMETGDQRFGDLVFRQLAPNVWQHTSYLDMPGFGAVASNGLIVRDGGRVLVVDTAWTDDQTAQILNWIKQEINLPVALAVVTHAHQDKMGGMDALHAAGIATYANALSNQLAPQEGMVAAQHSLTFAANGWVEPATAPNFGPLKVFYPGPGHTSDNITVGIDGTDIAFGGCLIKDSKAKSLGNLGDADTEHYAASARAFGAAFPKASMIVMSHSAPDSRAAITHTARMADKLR
- experiment description: Steady-state kinetics of antibiotic hydrolysis with inhibitor
- Type: biochemical
- details: cefotaxime, inhibitor concentration as per IC50
assay metric: kcat (S^−1)

- O=C(c1ccccc1)C1CCN(C(=O)CN2C(=O)c3ccccc3C2=O)CC1: 15.88
- O=C(O)c1ccccc1C(=O)N1CCN(c2nc(-c3ccccc3)ns2)CC1: 4.921
- O=C(CN1C(=O)c2ccccc2S1(=O)=O)c1ccc(O)c(O)c1: 1.833
- NC(=O)[C@@H]1CC[C@@H]2CN1C(=O)N2OS(=O)(=O)O [Avibactam, reference compound]: 1.036
